B1: EHEE_rd2_0196 (parent)
chain: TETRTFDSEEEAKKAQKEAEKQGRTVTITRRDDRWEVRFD

variants of: B1; test: folding stability dG (cDNA display proteolysis); higher = more stable; conditions: PBS, room temperature
measuredQuantity: folding stability dG (kcal/mol)
Give your result in kcal/mol as a bare value.

Data request, read-out folding stability dG, for E36Q
1.95

Quick one: E9A
2.01

Param item: Q22A
3.08

Entry to check: T1P
3.02

Let us now turn to E18F
2.32

How about this variant: D7R
2.46

Now the same for K21T
2.85

Continue with R38W
2.17

Consider next the variant E18S in the same way.
2.38

Again, but for T1Q
2.98

Moving on to the next variant: T27F
1.94

Request: V37P
0.552

What about A19L ?
3.39

Another: S8N
2.79

Consider next the variant W35V in the same way.
0.758

Follow-up entry: D7L
2.87

// same read-out, input: K13G
2.02

Same read-out for G23L ?
1.47

Also check K17S
3.02

Query I28K next
0.714

Note, next up: R24N
2.13

Query T1I next
3.08

One more variant: D32T
2.06

Now the variant D40I
3.13

Consider next the variant A19R in the same way.
1.21

Queued: E10T
2.04

Similarly, E36R ?
1.08

Another: T3L
3.15

Could you do the same for I28Q , please?
0.41

Then R4G ?
1.85

Next entry: D33M
1.95

What about this variant? A19E
2.28

And A12Q ?
0.157

Then what about the variant D7P ?
2.58

What about this variant? R30H
2.59

Consider next the variant R4E in the same way.
2.36

Now give it for E18R too.
2.46

Next variant up: A12D
0.06

Next up: E11I
1.46

Okay, and K17W ?
3.18

Moving on to E10N
2.17

Here is the next variant: K21N
2.96

Now consider R24T and answer again.
2.22

// next record K21L
3.22

Ok, now D7Q
2.54

// next record E20T
2.52
